Ki data for Prothrombin (Homo sapiens) follow.
property measured: Ki (nM)

CC(=O)N[C@H](Cc1ccccc1)C(=O)NCC(=O)NC(CCCN=C(N)N)B(O)O (stereo partly drawn) : 4.3

P: CC(=O)NCC(=O)NC(CCCN=C(N)N)B(O)O (stereo not drawn)
Q: CC(C)(C)OC(=O)N[C@H](Cc1ccccc1)C(=O)NCC(=O)NC(CCCN=C(N)N)B(O)O (stereo partly drawn)
Data request: Looking only at measured Ki, which entry is lower, P or Q ? Indicate your choice by writing its label.
Data returned: Q

Hey, just so you know, these numbers are from ChEMBL document CHEMBL1126719.
